- assay details: qHTS Primary assay for Inhibitors of Plasmodium falciparum Dd2 growth in vitro; further: nearly all actives have a fitted effect of over 65% in size
- particulars: P. falciparum Dd2 growth, SYBR Green, 72 h; series mostly up to 28.9 µM
Hit rate of the full screen: of about 120,000 compounds, about 5,300 (4.4%) were called active. Another 22% or so got no clear call; they are omitted. The call rests on the fitted dose curve; in most records, active means well fitted inhibition curve with a large enough effect; inconclusive means small, poorly fitted or top-dose-only effect; inactive means no such curve, though single readings can be large or run the other way. Only a selection was taken, and actives are over-represented in it overall.
Outcomes: y = active, n = inactive

| molecule | classification |
| --- | --- |
| CCOc1cc(=O)n2c(c1C(=O)Nc1ccc(F)cc1F)CCCC2 | n |
| CCOC(=O)N1CCc2c(sc(NCc3cccc(F)c3)c2C(=O)Nc2ccccc2OCC)C1 | y |
| CCC(=O)Nc1ccc2nnc(-c3ccc(C(=O)Nc4ccc(OC)cc4)cc3)n2c1 | y |
| CN(C)C[C@@H]1CN(S(C)(=O)=O)C[C@H]1NC(=O)c1ccc2ncccc2c1 | n |
| CCOC(=O)c1scc(-c2ccc(C)cc2)c1S(=O)(=O)Nc1cc(C)ccc1C | n |
| CN(C)C[C@@H]1CN(C)C[C@H]1NC(=O)C1CCC1 | n |
| COc1ccc(-c2cn3c(n2)sc2cc(C(=O)Nc4ccccc4F)ccc23)cc1 | n |
| CCC(CC)NC(=O)C1Cn2cccc2C(=O)N1 (stereo not drawn) | n |

* * *

- assay details: qHTS Primary assay for Inhibitors of Plasmodium falciparum Dd2 growth in vitro; further: nearly all actives have a fitted effect of over 65% in size
- particulars: P. falciparum Dd2 growth, SYBR Green, 72 h; series mostly up to 28.9 µM
About 5,300 (4.4%) of roughly 120,000 compounds were called active. Another 22% or so got no clear call; they are omitted. Calls come from the whole dose curve; as a rule, active = well fitted inhibition curve with a large enough effect; inconclusive = small, poorly fitted or top-dose-only effect; inactive = no such curve, though single readings can be large or run the other way. What follows is part of a selection rich in actives, with near analogues and random picks from the rest.
Outcomes: active, inactive

| compound | classification |
| --- | --- |
| CC(=O)c1c(C)nn(CC(=O)N2C[C@H](O)[C@@H](N3CCC(O)CC3)C2)c1C | inactive |
| COc1cc(=O)n2c(c1C(=O)Nc1cccc(Br)c1)CCCC2 | inactive |
| CCCCNC(=O)C1CCCN(c2nnc(C)c3c(C)n(-c4ccc(Cl)cc4)nc23)C1 (stereo not drawn) | inactive |
| O=C(Nc1cccnc1)N[C@@H]1C[C@H](CO)[C@@H](O)[C@H]1O | inactive |
| CCc1ccc(NC(=O)N2CCCC(Cn3cnc4cccnc43)C2)cc1 (stereo not drawn) | inactive |
| COCCc1noc(-c2ccc(NC(C)c3ncccc3C)nc2)n1 (stereo not drawn) | inactive |
| COC[C@@H]1CN(C(=O)COc2cccc(C)c2)C[C@H]1c1nc(C)no1 | inactive |
| CCCOc1ccc(C2c3c(-c4ccccc4O)n[nH]c3C(=O)N2Cc2cccnc2)cc1 (stereo not drawn) | inactive |
| CCN(Cc1ccccc1)C(=O)CCS(=O)(=O)c1ccc2c(c1)oc(=O)n2C | inactive |
| CC(C)c1ccc(CNC(=O)c2noc(-c3ccc[nH]c3=O)n2)cc1 | inactive |
| c1cc(CN2CCCCCC2)cc(-c2nc(C3CCOC3)no2)c1 (stereo not drawn) | active |
| Cc1nn2c(c1-c1ccccc1N1CCCC1)N(C(=O)c1ccc(Oc3ccccc3)cc1)CCC2 | inactive |
| COc1ccc(CNC(=O)c2ccc3c(O)c(S(=O)(=O)c4ccccc4)c(=O)[nH]c3c2)cc1 | inactive |
| Cc1cccc(C)c1-c1nc(C(=O)NCc2ccc(F)cc2)n2ccccc12 | inactive |
| CC(C)c1noc(-c2cn(C3CCN(C(=O)c4cccc(C#N)c4)CC3)nn2)n1 | inactive |
| Cc1nn2c(c1-c1ccccc1-c1ccccc1)N(CC1CC1)CCC2 | active |
| CC(C)c1ccc(NC(=O)c2ccc3c(O)c(S(=O)(=O)c4ccccc4)c(=O)[nH]c3c2)cc1 | active |
| Cc1nn2c(c1-c1ccnn1C(C)C)N(CC1CCOCC1)CCC2 | inactive |
| N#Cc1ccc(CC(=O)N2CC(CNc3cccnc3)C3(C2)CN(c2ccccc2)C3)cc1 (stereo not drawn) | inactive |
| O=C(c1ccncc1)N1CCC(C2CCN(Cc3cccc(F)c3F)CC2)C1 (stereo not drawn) | inactive |
| Cc1ccc(NC(=O)CC2=C3CCCCC3NC2=O)cc1 (stereo not drawn) | inactive |
| O=C(NCc1ccc(F)cc1)c1nc(-c2ccccc2)c2ccccn12 | active |
| COCCNC(=O)c1nc(-c2cc(Cl)cc(Cl)c2)c2ccccn12 | inactive |
| CC(=O)c1ccc(NC(c2ccc(F)cc2)c2nnc(-c3ccccc3)o2)cc1 (stereo not drawn) | inactive |
| C[S+](=O)([O-])c1ccc(CC(=O)N2CC(CNC(=O)C3CC3)C3(C2)CN(c2ccccc2)C3)cc1 (stereo not drawn) | inactive |
| COc1ccc(N2CCC(NC(=O)c3ccc4[nH]ccc4c3)C2=O)cc1 (stereo not drawn) | inactive |
| Cc1noc2c(-c3cccc(CO)c3)cc(-c3ccccc3)nc12 | inactive |
| CC(C)CN=C1S[C@H]2[C@H]([C@@H](O)[C@H](O)C[C@@H]2C(N)=O)N1Cc1ccc(F)cc1 | inactive |

* * *

- assay details: qHTS Primary assay for Inhibitors of Plasmodium falciparum Dd2 growth in vitro; further: nearly all actives have a fitted effect of over 65% in size; further: potency means the concentration at half of the fitted maximal effect
- particulars: P. falciparum Dd2 growth, SYBR Green, 72 h; series mostly up to 28.9 µM
Among all 120,000 compounds or so, about 5,300 (4.4%) were called active. Not shown: some 22% with an inconclusive outcome. Shown is part of a subset that was picked to be rich in actives.
measurement kind: Potency

| compound | measurement kind | measured value |
| --- | --- | --- |
| CC(=O)NCCC(=O)N1Cc2ccccc2CC2(CCCCN2CC2CCNC2)C1 (stereo not given) | Potency | inactive |
| O=C(Nc1ccc([C@@H](O)[C@H]2COCC(=O)N2CCCc2ccccc2)cc1)C1CC1 | Potency | inactive |
| O=C(c1ccccc1)N1Cc2ccccc2CC2(CCCN2CC2CCNC2)C1 (stereo not given) | Potency | inactive |
| O=C(CCc1ccccc1)Nc1ccc([C@@H](O)[C@H]2COCC(=O)N2Cc2ccccc2F)cc1 | Potency | 11.2 µM (active) |
| CCn1cnnc1CC1CCN(C(=O)C2CCN(Cc3nc(-c4cccc(C)c4)oc3C)CC2)CC1 | Potency | 3.16 µM (active) |

* * *

- assay details: qHTS Primary assay for Inhibitors of Plasmodium falciparum Dd2 growth in vitro; further: nearly all actives have a fitted effect of over 65% in size
- particulars: P. falciparum Dd2 growth, SYBR Green, 72 h; series mostly up to 28.9 µM
Among all 120,000 compounds or so, about 5,300 (4.4%) were called active. Roughly 22% stayed inconclusive and do not appear here. Calls come from the whole dose curve; as a rule, active = well fitted inhibition curve with a large enough effect; inconclusive = small, poorly fitted or top-dose-only effect; inactive = no such curve, though single readings can be large or run the other way. This is one part of a sample in which actives are shown more often than they occur.
Outcomes: class 1 = active, class 0 = inactive

| molecule | classification |
| --- | --- |
| O=C(c1ccccc1F)N1CCCC2(C1)C(=NC1CCCCC1)NC(=O)N2c1cc(F)cc(F)c1 (stereo not drawn) | class 0 |
| CC(=O)N(C1CC1)C1CCOC2(CCN(C(=O)C3(c4ccccc4)CC3)CC2)C1 (stereo not drawn) | class 0 |
| CC(C)c1noc(-c2cccn3c(CNC(=O)c4ccc(C(C)(C)C)cc4)nnc23)n1 | class 0 |
| O=C1NC(=NC2CCCC2)C2(CCCN(Cc3ccsc3)C2)N1c1cc(F)cc(F)c1 (stereo not drawn) | class 1 |
| CC(C)CCN1CCC2(C1)C(=NC1CCCCC1)NC(=O)N2c1cc(F)cc(F)c1 (stereo not drawn) | class 1 |
| CN1c2cc(C(=O)NCc3ccccc3Br)ccc2C(=O)N2CCCCC21 (stereo not drawn) | class 1 |
| O=C1NC(=NC2CCCCC2)C2(CCCN(S(=O)(=O)c3cccs3)C2)N1c1cc(F)cc(F)c1 (stereo not drawn) | class 0 |
| O=C(Cn1nc(-c2ccccc2)n(CCc2ccccc2)c1=O)NC1CC1 | class 0 |
| COc1ccccc1C(=O)Nc1ccc2c(c1)CN(Cc1ccccc1)C(=O)C(C)O2 (stereo not drawn) | class 0 |
| COc1ccc(C(=O)N2CCCC3(C2)C(=NC2CCCC2)NC(=O)N3c2cc(F)cc(F)c2)cc1 (stereo not drawn) | class 0 |
| Cc1ccc(CNC(=O)c2ccc3c(c2)N(C)C2CCCCN2C3=O)cc1C (stereo not drawn) | class 0 |
| CN1c2cc(C(=O)Nc3ccccc3)ccc2C(=O)N2CCCCCC21 (stereo not drawn) | class 0 |
| COc1ccc(C2=NOC3(CCCN([S+](=O)([O-])c4ccccc4)C3)C2)cc1 (stereo not drawn) | class 0 |
| CN1c2cc(C(=O)N3CCC(C(N)=O)CC3)ccc2C(=O)N2CCCCC21 (stereo not drawn) | class 0 |
| O=C(N1CCCC(Cc2nc(C3CCOCC3)no2)C1)C1(c2ccccc2)CC1 (stereo not drawn) | class 0 |
| CN1c2cc(C(=O)Nc3ccc(Cl)cc3)ccc2C(=O)N2CCCCCC21 (stereo not drawn) | class 0 |
| O=C(c1cccs1)N1CCCCCC1CN1CCCC1 (stereo not drawn) | class 1 |
| Cc1cn2nc(C(=O)N3CCC(NC(=O)CCc4ccccc4)CC3)cc2c(=O)[nH]1 | class 1 |
